These measurements were taken from paper PMC7377474.

molecular target: PI3Kβ (Homo sapiens, UniProt P42338)
Sequence (P42338 whole entry): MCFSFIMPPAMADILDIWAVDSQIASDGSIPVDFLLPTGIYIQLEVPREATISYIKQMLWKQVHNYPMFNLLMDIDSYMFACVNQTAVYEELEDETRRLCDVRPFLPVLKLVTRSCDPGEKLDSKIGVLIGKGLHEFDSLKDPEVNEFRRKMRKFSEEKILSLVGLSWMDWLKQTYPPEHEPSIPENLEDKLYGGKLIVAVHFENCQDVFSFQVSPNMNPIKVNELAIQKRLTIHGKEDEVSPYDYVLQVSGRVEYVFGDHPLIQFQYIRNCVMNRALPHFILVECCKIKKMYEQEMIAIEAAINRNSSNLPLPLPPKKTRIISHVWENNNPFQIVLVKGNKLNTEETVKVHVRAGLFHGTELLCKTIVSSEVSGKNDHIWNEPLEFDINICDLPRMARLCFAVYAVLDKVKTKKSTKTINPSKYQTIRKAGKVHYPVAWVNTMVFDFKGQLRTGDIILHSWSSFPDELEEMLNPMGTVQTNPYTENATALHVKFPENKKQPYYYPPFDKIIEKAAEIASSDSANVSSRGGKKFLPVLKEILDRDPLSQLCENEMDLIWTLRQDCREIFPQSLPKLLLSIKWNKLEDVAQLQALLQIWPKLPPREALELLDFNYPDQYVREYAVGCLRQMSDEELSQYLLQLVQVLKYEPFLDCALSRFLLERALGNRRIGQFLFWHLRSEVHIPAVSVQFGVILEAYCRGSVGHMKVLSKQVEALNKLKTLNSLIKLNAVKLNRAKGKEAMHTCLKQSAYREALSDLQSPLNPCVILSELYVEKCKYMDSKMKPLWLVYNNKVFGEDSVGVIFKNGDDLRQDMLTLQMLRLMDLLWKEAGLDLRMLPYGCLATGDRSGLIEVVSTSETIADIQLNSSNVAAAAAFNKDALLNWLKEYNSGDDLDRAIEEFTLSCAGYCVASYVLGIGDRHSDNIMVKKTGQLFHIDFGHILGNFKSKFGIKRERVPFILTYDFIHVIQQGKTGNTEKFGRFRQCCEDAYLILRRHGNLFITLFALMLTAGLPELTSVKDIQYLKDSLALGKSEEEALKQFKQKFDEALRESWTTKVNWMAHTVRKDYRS
measuredEndpoint: pKd
pKd field: float, defined as -log10 of concentration (mol/L).

[ask] Specify reported pKd for the compound shown: CC(C)(C)N1CCN(Cc2cc3nc(-c4cncc5[nH]ccc45)cc(N4CCOCC4)n3n2)CC1
[reply] 6.41

* * *

test: in vitro; type: cell-based; conditions: human
measuredEndpoint: AC50 at 48 h

[ask] Specify reported AC50 at 48 h for the molecule shown: CC(C)(C)N1CCN(Cc2cc3nc(-c4cncc5[nH]ccc45)cc(N4CCOCC4)n3n2)CC1
[reply] > 100 µM

* * *

molecular target: PI3Kγ (Homo sapiens)
Sequence (P48736 whole entry): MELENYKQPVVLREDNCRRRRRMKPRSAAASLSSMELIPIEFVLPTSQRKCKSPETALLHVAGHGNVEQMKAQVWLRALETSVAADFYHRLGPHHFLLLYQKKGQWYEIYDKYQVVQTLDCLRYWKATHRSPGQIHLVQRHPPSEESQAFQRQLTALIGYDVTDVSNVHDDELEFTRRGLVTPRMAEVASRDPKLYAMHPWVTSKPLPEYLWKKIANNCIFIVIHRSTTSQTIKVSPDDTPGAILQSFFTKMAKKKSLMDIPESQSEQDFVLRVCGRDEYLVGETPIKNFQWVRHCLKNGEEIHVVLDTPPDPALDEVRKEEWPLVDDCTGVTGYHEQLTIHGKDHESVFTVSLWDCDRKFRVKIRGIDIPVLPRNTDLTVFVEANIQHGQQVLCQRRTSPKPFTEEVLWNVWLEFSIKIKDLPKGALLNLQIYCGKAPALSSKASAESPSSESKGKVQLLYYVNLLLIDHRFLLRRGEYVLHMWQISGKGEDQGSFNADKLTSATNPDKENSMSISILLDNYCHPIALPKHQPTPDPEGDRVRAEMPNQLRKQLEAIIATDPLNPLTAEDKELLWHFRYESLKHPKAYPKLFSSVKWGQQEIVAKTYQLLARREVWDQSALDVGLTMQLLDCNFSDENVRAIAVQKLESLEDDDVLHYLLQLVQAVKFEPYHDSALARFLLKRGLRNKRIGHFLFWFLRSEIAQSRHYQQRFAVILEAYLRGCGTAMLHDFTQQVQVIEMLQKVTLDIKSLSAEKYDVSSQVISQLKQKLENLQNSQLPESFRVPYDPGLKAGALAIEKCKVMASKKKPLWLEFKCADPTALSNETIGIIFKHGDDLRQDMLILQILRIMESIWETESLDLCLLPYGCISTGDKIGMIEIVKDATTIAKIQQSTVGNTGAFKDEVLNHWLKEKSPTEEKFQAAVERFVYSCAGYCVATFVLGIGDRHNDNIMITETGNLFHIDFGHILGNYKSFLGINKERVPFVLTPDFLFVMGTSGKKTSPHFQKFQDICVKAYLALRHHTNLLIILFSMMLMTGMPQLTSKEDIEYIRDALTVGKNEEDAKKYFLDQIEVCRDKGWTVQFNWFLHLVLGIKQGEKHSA
measuredEndpoint: IC50 (µM)
Kindly provide the numeric value in µM only, without the unit symbol.

[ask] Fill in IC50 for CC(C)(C)N1CCN(Cc2cc3nc(-c4cncc5[nH]ccc45)cc(N4CCOCC4)n3n2)CC1 tested with PI3Kγ (Homo sapiens).
[reply] 45.4

* * *

target: UniProt:P42336
measuredEndpoint: Kd (nM)
Kindly provide the numeric value in nM only, without the unit symbol.

[ask] Specify reported Kd for the compound shown: CC(C)(C)N1CCN(Cc2cc3nc(-c4cncc5[nH]ccc45)cc(N4CCOCC4)n3n2)CC1 [CPL302-253]
[reply] 1900

* * *

target: PI3Kδ (Homo sapiens)
measuredEndpoint: pIC50
pIC50 field: float, defined as -log10 of concentration (mol/L).

[ask] Fill in pIC50 for CC(C)(C)N1CCN(Cc2cc3nc(-c4cncc5[nH]ccc45)cc(N4CCOCC4)n3n2)CC1 [CPL302-253] tested with PI3Kδ (Homo sapiens).
[reply] 7.91

* * *

biological target: PI3Kγ (Homo sapiens)
measuredEndpoint: pKd
pKd field: float, defined as -log10 of concentration (mol/L).

[ask] Specify reported pKd for the compound shown: CC(C)(C)N1CCN(Cc2cc3nc(-c4cncc5[nH]ccc45)cc(N4CCOCC4)n3n2)CC1
[reply] 5.32

* * *

target: PI3Kα (Homo sapiens)
measuredEndpoint: IC50 (µM)
Kindly provide the numeric value in µM only, without the unit symbol.

[ask] Specify reported IC50 for the compound shown: CC(C)(C)N1CCN(Cc2cc3nc(-c4cncc5[nH]ccc45)cc(N4CCOCC4)n3n2)CC1
[reply] 4.52

* * *

system: Normal Human Bronchial Epithelial (NHBE) cells; assay: in vitro; type: cell-based; conditions: 48 h
measuredEndpoint: AC50

[ask] Specify reported AC50 for the compound shown: CC(C)(C)N1CCN(Cc2cc3nc(-c4cncc5[nH]ccc45)cc(N4CCOCC4)n3n2)CC1
[reply] > 100 µM

* * *

Target: PI3Kδ (Homo sapiens)
Sequence (O00329 1-1044): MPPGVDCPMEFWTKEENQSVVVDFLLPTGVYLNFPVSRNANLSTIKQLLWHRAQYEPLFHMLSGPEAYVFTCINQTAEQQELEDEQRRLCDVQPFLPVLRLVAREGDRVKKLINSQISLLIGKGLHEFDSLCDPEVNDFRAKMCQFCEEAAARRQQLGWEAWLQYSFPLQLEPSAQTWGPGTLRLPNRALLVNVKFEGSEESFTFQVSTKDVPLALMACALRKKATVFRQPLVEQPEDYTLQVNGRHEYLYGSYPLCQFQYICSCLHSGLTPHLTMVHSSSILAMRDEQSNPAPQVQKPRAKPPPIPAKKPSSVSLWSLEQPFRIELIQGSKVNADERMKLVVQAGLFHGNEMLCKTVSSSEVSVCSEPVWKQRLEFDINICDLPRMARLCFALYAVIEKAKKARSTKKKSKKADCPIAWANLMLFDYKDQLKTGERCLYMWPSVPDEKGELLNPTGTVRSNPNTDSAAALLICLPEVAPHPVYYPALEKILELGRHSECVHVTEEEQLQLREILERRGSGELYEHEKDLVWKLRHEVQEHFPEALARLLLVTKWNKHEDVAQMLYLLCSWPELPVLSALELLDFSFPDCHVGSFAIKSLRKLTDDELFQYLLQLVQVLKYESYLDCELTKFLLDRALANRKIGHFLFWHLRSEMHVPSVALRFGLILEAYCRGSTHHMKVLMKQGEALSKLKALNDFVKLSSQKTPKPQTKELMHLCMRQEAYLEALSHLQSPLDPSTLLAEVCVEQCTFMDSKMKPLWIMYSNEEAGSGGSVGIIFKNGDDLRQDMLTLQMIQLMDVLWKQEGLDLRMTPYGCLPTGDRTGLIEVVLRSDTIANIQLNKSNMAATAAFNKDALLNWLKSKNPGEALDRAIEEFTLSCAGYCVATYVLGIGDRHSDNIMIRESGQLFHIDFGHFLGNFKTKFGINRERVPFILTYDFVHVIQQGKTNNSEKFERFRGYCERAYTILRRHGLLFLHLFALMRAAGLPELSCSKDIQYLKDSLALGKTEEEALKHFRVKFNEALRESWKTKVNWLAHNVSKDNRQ
measuredEndpoint: pKd
pKd field: float, defined as -log10 of concentration (mol/L).

[ask] Specify reported pKd for the molecule shown: CC(C)(C)N1CCN(Cc2cc3nc(-c4cncc5[nH]ccc45)cc(N4CCOCC4)n3n2)CC1
[reply] 9.07
